Ref: paper PMC10391610

Target: T1, survivin (His-tagged, from pHIS8) (human, UniProt O15392 1-142)
T1 construct: survivin, human, residues 1-142 (142 amino acids), called the full-length construct; plasmid pHis8-survivin obtained from the Verdecia lab (doi 10.1038/76838); The tag is detected by the anti-His antibody on the microarray; For NMR the protein was uniformly 15N labelled (M9 medium); For MST one copy was labelled with the GREEN-MALEIMIDE (cysteine reactive) dye; also called survivin_(1-142); …
T1 sequence (O15392 whole entry, the tested form may be a part): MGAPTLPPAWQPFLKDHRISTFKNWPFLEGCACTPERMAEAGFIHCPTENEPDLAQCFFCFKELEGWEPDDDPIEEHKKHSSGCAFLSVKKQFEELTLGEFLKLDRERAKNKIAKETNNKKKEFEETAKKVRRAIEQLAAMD
Experiment: NMR titration; peptides titrated into [U-15N]-survivin (0.3 mM); 2D [15N,1H]-SOFAST-HMQC; NMR buffer (50 mM Tris, 150 mM NaCl, 1 mM DTT, pH 7.5), 298 K; global signal attenuation fitted with a logistic function (critical peptide concentration, cpc)
Details: both partners purified
measured_quantity: NMR cpc (critical peptide concentration) (µM)
Numbers only, in µM.

PNSMVYFGSSQDEEEVEEEDDETED (source: synthetic peptide, bought: Biomatik (purified to 95%)) [JARID2_(170-194) peptide]    0.0085
SQGEIRLLQSYVDADADENFYTCAW (embryonic ectoderm development (EED), residues 128-152; source: synthetic peptide, bought: Biomatik (purified to 95%)) [EED_(128-152) peptide]    0.0076
PLRPQEMEVDSEDEKDPEWLREKTI (suppressor of zeste 12 (SUZ12), residues 573-597; source: synthetic peptide, bought: Biomatik (purified to 95%)) [SUZ12_(573-597) peptide]    0.0066

// below: NMR cpc (critical peptide concentration) requested for another binder
Request: Consider the binder shown here: VELVNALGQYNDDDDDDDGDDPEEREEKQKDLEDHRDDKE (source: synthetic peptide, bought: Biomatik (purified to 95%)) [EZH2_(172-211) peptide] What is its recorded NMR cpc (critical peptide concentration)?
Result: 0.0021
